I'd be grateful if you could share measured IC50 for these entries.
molecular target: hTRPV3 (Homo sapiens (Human)); assay: Whole-cell patch clamp, hTRPV3 Phase 1 / Phase 2 currents; type: cell-based; conditions: Phase 1 current; read-out: hTRPV3 (nM) (Phase 1)
Sequence (Q8NET8 whole entry): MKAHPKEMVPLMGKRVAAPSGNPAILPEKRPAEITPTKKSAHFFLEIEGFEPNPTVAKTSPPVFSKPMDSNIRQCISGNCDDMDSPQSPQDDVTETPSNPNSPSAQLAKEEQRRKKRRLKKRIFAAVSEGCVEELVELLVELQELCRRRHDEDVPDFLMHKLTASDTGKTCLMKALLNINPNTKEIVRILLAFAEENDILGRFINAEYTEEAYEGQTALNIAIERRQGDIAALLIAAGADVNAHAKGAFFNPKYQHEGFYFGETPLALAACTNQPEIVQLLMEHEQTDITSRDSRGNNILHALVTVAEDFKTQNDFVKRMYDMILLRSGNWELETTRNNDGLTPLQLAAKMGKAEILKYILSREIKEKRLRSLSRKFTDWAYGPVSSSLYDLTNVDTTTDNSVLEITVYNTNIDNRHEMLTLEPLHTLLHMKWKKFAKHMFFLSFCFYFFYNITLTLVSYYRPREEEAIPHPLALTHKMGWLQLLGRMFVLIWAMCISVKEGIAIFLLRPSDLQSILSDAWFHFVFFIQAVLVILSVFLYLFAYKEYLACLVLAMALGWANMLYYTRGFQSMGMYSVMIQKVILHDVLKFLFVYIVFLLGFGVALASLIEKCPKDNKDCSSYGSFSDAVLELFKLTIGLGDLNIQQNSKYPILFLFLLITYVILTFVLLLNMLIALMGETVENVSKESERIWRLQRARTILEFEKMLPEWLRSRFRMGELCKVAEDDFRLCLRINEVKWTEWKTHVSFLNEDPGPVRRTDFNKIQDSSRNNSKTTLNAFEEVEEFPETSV

Fill blank: measured IC50 of the compound "NC(=O)c1cc(-c2ccccc2)ncc1N1CC[C@@H](Oc2ccc(C(F)(F)F)cn2)C1" is ____.
~787 nM

Name the recorded IC50 for "Oc1cc(-c2ccccc2)ccc1N1CC[C@@H](Oc2ccc(C(F)(F)F)cn2)C1" .
> 3200 nM

Item under review: "O=C(c1cccc(Cl)c1)c1ccc(N2CC[C@H](Nc3ccc(F)cn3)C2)c(CCO)c1" . Reported IC50?
~2950 nM

* * *

assay: Metabolic Stability assay, rat liver microsomes; format: in vitro ADME; details: read-out: LM T1/2 (min) rat
Give half-life at 1 μM for every item shown.
Respond numerically; units are min and should not be typed.

Need half-life at 1 μM of Cc1cccc(C(=O)N2CCC(c3ccc(Oc4ccccc4C(C)C)cc3C(N)=O)C2)n1 (centres unmarked) , thanks.
11

For CCc1ccccc1-c1ccc(C2CCN(C(=O)c3ccc(Cl)cn3)C2)c(CO)c1 (centres unmarked) , what is its reported half-life at 1 μM?
14.4

Requested read-out: half-life at 1 μM. Entry: CC(C)c1ccccc1Oc1ccc(C2CCN(Cc3ccccn3)C2)c(CO)c1 (centres unmarked)
2.46

Query: half-life at 1 μM; subject: CC(C)c1ccccc1Oc1ccc(C2CCN(C(=O)c3cccc(Cl)n3)C2)c(CO)c1 (centres unmarked)
8.33

Field request: half-life at 1 μM | item: CC(C)c1ccccc1-c1ccc(C2CCN(C(=O)c3cc(Cl)ccn3)C2)c(CO)c1 (centres unmarked)
20.6

Returns the measured half-life at 1 μM for the input compound. Input: Cc1cccnc1C(=O)N1CCC(c2ccc(Oc3ccccc3C(C)C)cc2CO)C1 (centres unmarked)
7.81

Given CC(C)c1ccccc1-c1ccc(C2CCN(C(=O)c3ncccc3Cl)C2)c(CO)c1 (centres unmarked) , state its recorded half-life at 1 μM.
11.2

Which half-life at 1 μM is listed for O=C(c1ccc(C(F)(F)F)cn1)N1CCC(c2ccc(-c3ccccc3C3CC3)cc2CO)C1 (centres unmarked) ?
47.9

Dear colleague, I am looking for the recorded half-life at 1 μM of the following compound: CCOc1ccccc1-c1ccc(C2CCN(C(=O)c3ccc(Cl)cn3)C2)c(CO)c1 (centres unmarked)
12.6

Which measured half-life at 1 μM value corresponds to CC(C)c1ccccc1-c1ccc(C2CCN(C(=O)c3ccc(Cl)cn3)C2)c(C(N)=O)c1 (centres unmarked) ?
7.16

Can you share its half-life at 1 μM? I mean this compound: "CC(C)c1ccccc1-c1ccc([C@H]2CCN(C(=O)c3ccc(F)cn3)C2)c(CO)c1"
12.1

* * *

Provide the recorded log10 of IC50 for the entries that follow.
target: hTRPV3 (Homo sapiens (Human)); assay: Whole-cell patch clamp, hTRPV3 Phase 1 / Phase 2 currents; assay type: cell-based; details: Phase 1 current; read-out: hTRPV3 (nM) (Phase 1)
In our notation, the value equals log10 of IC50 in nM.

// lookup log10 of IC50 | system=hTRPV3 (Homo sapiens (Human)) | key= "Cc1ccccc1Oc1ccc(CO)c(N2CC[C@H](Oc3ncccc3Cl)C2)c1"
1.27

Observed log10 of IC50 on hTRPV3 (Homo sapiens (Human)) for "Cc1ccccc1-c1ccc(CO)c(N2CC[C@H](Oc3ncccc3Cl)C2)c1" , please.
2.97

Please state recorded log10 of IC50 (tested on hTRPV3 (Homo sapiens (Human))) of "OCc1nc(Oc2ccccc2)ccc1N1CC[C@H](Oc2ccc(C(F)(F)F)cn2)C1"
1.37

Given the entry "Cc1ccccc1-c1ccc(N2CC[C@H](Oc3ncccc3C)C2)c(CCO)c1" , what log10 of IC50 was observed with hTRPV3 (Homo sapiens (Human))?
2.26

Write down the reported log10 of IC50 of "NC(=O)c1cc(Cc2ccccc2)ccc1N1CC[C@H](Oc2ncccc2Cl)C1" , test system: hTRPV3 (Homo sapiens (Human)).
3.29

Give log10 of IC50 (hTRPV3 (Homo sapiens (Human))) of the following compound: "COCc1ccccc1Oc1ccc(N2CC[C@H](Oc3ccc(F)cn3)C2)c(CCO)c1"
2.94

I'm curious: which log10 of IC50 was measured for "Cc1ccccc1-c1ccc(N2CC[C@H](Oc3ccc(Cl)cn3)C2)c(CO)n1" tested on hTRPV3 (Homo sapiens (Human))?
2.03

Could you share what log10 of IC50 was measured for "O=C(c1ccc(F)cc1)c1ccc(N2CC[C@H](Oc3ncccc3F)C2)c(CO)c1" , tested on hTRPV3 (Homo sapiens (Human))?
2.52

// fetch hTRPV3 (Homo sapiens (Human)) log10 of IC50 for "Cc1ccc(O[C@H]2CCN(c3ccc(-c4ccccn4)nc3CO)C2)nc1"
3.67
